Measured Binding specificity monomer to oligomer, listed per entry.
Molecular target: Abeta monomers (Homo sapiens, UniProt P05067)
Construct: incubate with FITC Abeta monomers, oligomers, fibrils and FITC for 1 hour at room temperature
Sequence (P05067 672-713 limits assumed): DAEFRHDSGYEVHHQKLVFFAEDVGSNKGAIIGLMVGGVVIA
Assay: Peptide microarray, binding of FITC Abeta monomers to immobilized peptides
Conditions: quotient binding signal to monomers / binding signal to oligomers
[ ]: non-standard residue; d: D form. d(hArg) = N=C(N)NCCCC[C@@H](N)C(=O)O; dPhg = N[C@@H](C(=O)O)c1ccccc1
The answer should be written as a number, with no unit following it.

Use the examples below as a reference point.
{"columns": ["SUBSTANCE", "STUDY TARGET", "Binding specificity monomer to oligomer"],
 "data": [
  ["rpr07rlhtkkkr (H-[dR][dP][dR][d(hArg)][dR][dL][dH][dT][dK][dK][dK][dR]-NH2; SMILES CC(C)C[C@@H](NC(=O)[C@@H](CCCNC(=N)N)NC(=O)[C@@H](CCCCNC(=N)N)NC(=O)[C@@H](CCCNC(=N)N)NC(=O)[C@H]1CCCN1C(=O)[C@H](N)CCCNC(=N)N)C(=O)N[C@H](Cc1c[nH]cn1)C(=O)N[C@@H](C(=O)N[C@H](CCCCN)C(=O)N[C@H](CCCCN)C(=O)N[C@H](CCCCN)C(=O)N[C@H](CCCNC(=N)N)C(N)=O)[C@H](C)O) [ANK18, D3 derivative; 07: D-Homoarginine]", "Abeta monomers (Homo sapiens, UniProt P05067)", 7.0],
  ["rkrirl06yhinr (H-[dR][dK][dR][dI][dR][dL][dPhg][dY][dH][dI][dN][dR]-NH2; SMILES CC[C@@H](C)[C@@H](NC(=O)[C@@H](Cc1c[nH]cn1)NC(=O)[C@@H](Cc1ccc(O)cc1)NC(=O)[C@H](NC(=O)[C@@H](CC(C)C)NC(=O)[C@@H](CCCNC(=N)N)NC(=O)[C@H](NC(=O)[C@@H](CCCNC(=N)N)NC(=O)[C@@H](CCCCN)NC(=O)[C@H](N)CCCNC(=N)N)[C@H](C)CC)c1ccccc1)C(=O)N[C@H](CC(N)=O)C(=O)N[C@H](CCCNC(=N)N)C(N)=O) [ANK2, D3 derivative; 06: Phenylglycine (D)]", "Abeta monomers (Homo sapiens, UniProt P05067)", 3.4],
  ["rkr07rlvtkrnr (H-[dR][dK][dR][d(hArg)][dR][dL][dV][dT][dK][dR][dN][dR]-NH2; SMILES CC(C)C[C@@H](NC(=O)[C@@H](CCCNC(=N)N)NC(=O)[C@@H](CCCCNC(=N)N)NC(=O)[C@@H](CCCNC(=N)N)NC(=O)[C@@H](CCCCN)NC(=O)[C@H](N)CCCNC(=N)N)C(=O)N[C@@H](C(=O)N[C@@H](C(=O)N[C@H](CCCCN)C(=O)N[C@H](CCCNC(=N)N)C(=O)N[C@H](CC(N)=O)C(=O)N[C@H](CCCNC(=N)N)C(N)=O)[C@H](C)O)C(C)C) [ANK16, D3 derivative; 07: D-Homoarginine]", "Abeta monomers (Homo sapiens, UniProt P05067)", 8.6],
  ["rkrirl06yhikr (H-[dR][dK][dR][dI][dR][dL][dPhg][dY][dH][dI][dK][dR]-NH2; SMILES CC[C@@H](C)[C@@H](NC(=O)[C@@H](Cc1c[nH]cn1)NC(=O)[C@@H](Cc1ccc(O)cc1)NC(=O)[C@H](NC(=O)[C@@H](CC(C)C)NC(=O)[C@@H](CCCNC(=N)N)NC(=O)[C@H](NC(=O)[C@@H](CCCNC(=N)N)NC(=O)[C@@H](CCCCN)NC(=O)[C@H](N)CCCNC(=N)N)[C@H](C)CC)c1ccccc1)C(=O)N[C@H](CCCCN)C(=O)N[C@H](CCCNC(=N)N)C(N)=O) [ANK17, D3 derivative; 06: Phenylglycine (D)]", "Abeta monomers (Homo sapiens, UniProt P05067)", 4.8]
]}

Which Binding specificity monomer to oligomer is reported with Abeta monomers (Homo sapiens, UniProt P05067) for this entry: rprvrl06yhwnr (H-[dR][dP][dR][dV][dR][dL][dPhg][dY][dH][dW][dN][dR]-NH2; SMILES CC(C)C[C@@H](NC(=O)[C@@H](CCCNC(=N)N)NC(=O)[C@H](NC(=O)[C@@H](CCCNC(=N)N)NC(=O)[C@H]1CCCN1C(=O)[C@H](N)CCCNC(=N)N)C(C)C)C(=O)N[C@@H](C(=O)N[C@H](Cc1ccc(O)cc1)C(=O)N[C@H](Cc1c[nH]cn1)C(=O)N[C@H](Cc1c[nH]c2ccccc12)C(=O)N[C@H](CC(N)=O)C(=O)N[C@H](CCCNC(=N)N)C(N)=O)c1ccccc1) [ANK15, D3 derivative; 06: Phenylglycine (D)] ?
2.2

Reference for the values: patent US10174097B2
